- Test system: SR leukemia
- assay_remarks: NCI-60 one-dose screen, 48 h
- cond: 10 µM unless noted
This is part of a sample that, as a whole, favours compounds with a hit. Of some 83,000 tested, about 20% had one in any assay. Active and inactive are the calls of the source. Rule for the calls: active = growth percent below 10; inactive = the rest.
Assign a class; possible classes are active, inactive

Exam item: Per the records of this test, what outcome belongs to `COC[C@]12CCC(C)(C)C[C@H]1C1=CC[C@@H]3[C@@]4(C)CCCNC(C)(C)[C@@H]4CC[C@@]3(C)[C@]1(C)CC2` ?
Marked response: active

Exam item: Per the records of this test, what outcome belongs to CCNC(=O)N1CCc2cc(OC)c(OCCc3ccc(OC)c(N)c3)cc2C1c1cc(C)c(C)cc1C (stereo not drawn) ?
Marked response: inactive

Exam item: Per the records of this test, what outcome belongs to `O=C(CNc1nc(-c2cccc([N+](=O)[O-])c2)cs1)Nc1cccc(Cl)c1` ?
Marked response: inactive

====

Answer each item with its documented growth.
- Test system: SR leukemia
- assay_remarks: NCI-60 one-dose screen, 48 h (100 = growth as untreated, 0 = no growth, -100 = all killed)
- cond: 10 µM unless noted
- Procedure: Growth inhibition of the SR human tumor cell line is measured as a screen for anti-cancer activity. Cells are grown in 96 well plates and exposed to the test compound for 48 hours. Compounds are tested at a single concentration, which is 10^-5 M for most compounds. The reported endpoint is percent growth (GI% or GIPRCNT), where numbers from 0 - 100% represent growth inhibition, and numbers from -100% - 0 represent cell death. For example, a value of 40 represents 60% growth inhibition. […]
This is part of a sample that, as a whole, favours compounds with a hit. Of some 83,000 tested, about 20% had one in any assay.
Give just the number in %; leave the unit off.

Exam item: Field request: growth | item: `CCOC(=O)c1c(N)c(C#N)cn1-c1cc(OC)c(OC)c(OC)c1`
Marked response: 105

Exam item: Field request: growth | item: CCCn1cnc2c(c1=N)C(c1ccc(OC)cc1)c1sc3c(C)cccc3c1O2 (configuration not stated)
Marked response: 27

Exam item: Field request: growth | item: O=C1CC(=O)N2CSCN(C(c3ccccc3)c3nc4ncncc4[nH]3)C2=N1 (configuration not stated)
Marked response: 118

Exam item: Field request: growth | item: `CS(=O)(=O)c1ccc(-c2nn(-c3ccccc3)cc2/C=N/NC(=O)c2nc(N)n[nH]2)cc1`
Marked response: 69.7

Exam item: Field request: growth | item: Cc1cccc2c3c(sc12)C(c1ccc(Cl)cc1)c1c(nc(CC(=O)Nc2ccccc2)[nH]c1=O)O3 (configuration not stated)
Marked response: 58.1

Exam item: Field request: growth | item: `COc1ccc(N2CCN(C3=C(Cl)C(=O)C(C)=C(C)C3=O)CC2)cc1`
Marked response: 78.6

Exam item: Field request: growth | item: `Cc1ccc(-c2nn(-c3ccccc3)cc2/C=C/C(=O)c2ccc(NC(=O)CCCCCCC(=O)NO)cc2)cc1`
Marked response: 85.4

====

- System: T-47D breast
- assay_remarks: NCI-60 one-dose screen, 48 h (100 = growth as untreated, 0 = no growth, -100 = all killed)
- cond: 10 µM unless noted
The panel holds about 83,000 compounds, 20% with a hit somewhere; the sample as a whole holds those more often.
readout_name: growth (%)
Give just the number in %; leave the unit off.

Exam item: Field request: growth | item: `COc1cc(-c2nn(C(C)(C)C)cc2-c2ccnc(NCCCNS(=O)(=O)c3cccc(F)c3)n2)ccc1Cl`
Marked response: 69.5

Exam item: Field request: growth | item: `COc1ccccc1N1CCN(C2=CC(=O)C(C)=C(C)C2=O)CC1`
Marked response: 91.1

Exam item: Field request: growth | item: `O=S(=O)(Nc1ccc(I)cc1Cl)c1ccc(-c2cnc(C3CC3)o2)cc1`
Marked response: 31.7

Exam item: Field request: growth | item: `C=CCn1c(SCC(=O)Nc2ccc(C(=O)/C=C/c3cc(OC)c(OC)c(OC)c3)cc2)nnc1-c1c[nH]c2ccccc12`
Marked response: 49

Exam item: Field request: growth | item: O=C1Nc2ccccc2/C1=C/c1ccc(COCC2CO2)n1-c1ccc(O)cc1 (centres undefined)
Marked response: 91.4

Exam item: Field request: growth | item: `Nc1nc(-c2cccc([N+](=O)[O-])c2)c(N=Nc2ccccc2)s1`
Marked response: 40.5

Exam item: Field request: growth | item: `CCn1c(SCC(=O)Nc2cccc(C(=O)/C=C/c3ccc(C)cc3)c2)nc2ccccc2c1=O`
Marked response: 70.7

Exam item: Field request: growth | item: `N/C(=N\C(N)=N\c1nc2ccccc2s1)c1ccncc1Cl`
Marked response: 55.4

Exam item: Field request: growth | item: CC1=CC(=O)C2=C(C)CC(OC(=O)CCc3ccccc3)[C@@H]3[C@H](OC(=O)[C@@H]3C)[C@@H]12 (some centres undefined)
Marked response: 96.5

Exam item: Field request: growth | item: `NC(N)=Nc1ccc(Oc2cccc(Oc3ccc(Cl)c(C(F)(F)F)c3)c2)cn1`
Marked response: 8.88

Exam item: Field request: growth | item: `O=C(CN1CCN(c2cc(=O)n(-c3ccccc3)c3ccccc23)CC1)Nc1nc(-c2ccccc2)cs1`
Marked response: 16.6

Exam item: Field request: growth | item: `Nc1cc(F)ccc1NC(=O)c1ccc(NC(=O)C/C=C/c2cccnc2)cc1`
Marked response: 22.7

Exam item: Field request: growth | item: CCO/C=N/C1=C(C#N)C(c2ccc(OC)cc2)c2sc3c(C)cccc3c2O1 (centres undefined)
Marked response: 34.5

Exam item: Field request: growth | item: C#CC(=O)N(c1ccc(OC)cc1OC)C(C(=O)NCC(=O)OCC)c1cccs1 (centres undefined)
Marked response: 38.1

Exam item: Field request: growth | item: `CCOC(=O)c1c(Nc2ccccc2)nn2c(-c3ccc(Cl)cc3)ccnc12`
Marked response: 64.2

Exam item: Field request: growth | item: `CC(C)C[C@@H]1N[C@@]2(C(=O)Nc3ccccc32)[C@@H](c2ccc(F)cc2)[C@@H]1C(=O)c1ccc(O)cc1`
Marked response: 76.5

Exam item: Field request: growth | item: `CC(=O)O[C@@H]1C(=O)N(c2cnccn2)[C@H]1c1ccccc1[N+](=O)[O-]`
Marked response: 85.2

Exam item: Field request: growth | item: `O=C(NCCN1CCCC1)c1ccc(-c2nc3ccc4[nH]ncc4c3c3c2CCCC3)cc1`
Marked response: 23

Exam item: Field request: growth | item: O=C1CCCC2=C1C(c1c[nH]c3ccc(Br)cc13)Cc1cc(Br)ccc1N2 (centres undefined)
Marked response: 20.7

Exam item: Field request: growth | item: `Cc1cc(-c2ccc(Cl)cc2)n(Cc2nnc(SCC(=O)Nc3ccc(S(N)(=O)=O)cc3)n2-c2ccc([N+](=O)[O-])cc2)n1`
Marked response: 70.3

Exam item: Field request: growth | item: `Cc1ccc(-c2cc3nc(C(Cl)Cl)nc(C)n3n2)cc1`
Marked response: 94.6

Exam item: Field request: growth | item: CCOC(=O)C(=O)/C(=C\c1ccc(Cl)cc1)C(=O)N1C(=S)NC(=O)C1CC(C)C (centres undefined)
Marked response: 98.2

Exam item: Field request: growth | item: `NC/C(=C/F)COc1ccc2nc(NCc3cccnc3)oc2c1`
Marked response: 103

Exam item: Field request: growth | item: `Cc1ccc(-n2cc(/C=N/NC(=O)c3ccncc3)c(-c3ccc(S(C)(=O)=O)cc3)n2)cc1`
Marked response: 93.1

Exam item: Field request: growth | item: `NS(=O)(=O)c1ccc(Nc2nc(N/N=C/CCc3ccccc3)nc(Nc3ccccc3)n2)cc1`
Marked response: 102

Exam item: Field request: growth | item: `O=C(Nc1ccc(N=Cc2c(O)[nH]c3ccccc23)cc1)Nc1nccs1`
Marked response: 41.2

Exam item: Field request: growth | item: `CCOC(=O)c1c(Nc2ccccc2)nn2c(-c3cccs3)ccnc12`
Marked response: 79.2

Exam item: Field request: growth | item: O=C(c1ccc(Cl)cc1)C1[C@H](c2ccc(Cl)cc2)[C@@H](c2ccccc2)NC12C(=O)Nc1ccccc12 (some centres undefined)
Marked response: 40.1

Exam item: Field request: growth | item: `NC(N)=Nc1ccc(Oc2cccc(NC(N)=Nc3ccc(I)cc3F)c2)cc1`
Marked response: 75.3
